- assayOverview: Cytotoxicity against mock-infected human MT4 cells assessed as decrease in cell viability by MTT assay
- Type: cell-based
In this section we review reported CC50 values for a set of molecules.
outcomeMeasure: CC50 (µM)

                                    molecule  censoringoperator  observedresult
 0  COc1cc2c(cc1OC)C1=NN(C(=O)Nc3ccc(F)cc3)C(c3ccc(F)cc3)C1C2 (configuration not stated)                  =             119
 1  COc1cc2c(cc1OC)C1=NN(C(=O)Nc3ccc(Br)cc3)C(c3ccccc3Cl)C1C2 (configuration not stated)                  =            11.5
 2  COc1cc2c(cc1OC)C1=NN(C(=O)Nc3c(C)cccc3C)C(c3ccccc3)C1C2 (configuration not stated)                  =             211
 3  COc1cc2c(cc1OC)C1=NN(C(=O)Nc3ccc(C)cc3C)C(c3ccncc3)C1C2 (configuration not stated)                  =            25.2
 4  COc1cc2c(cc1OC)C1=NN(C(=O)Nc3ccc(C)cc3C)C(c3ccc(F)cc3)C1C2 (configuration not stated)                  =             198
 5  COc1cc2c(cc1OC)C1=NN(C(N)=O)C(c3ccc(F)cc3)C1C2 (configuration not stated)                  =             151
 6  COc1cc2c(cc1OC)C1=NN(C(=O)Nc3ccc(F)c(Cl)c3)C(c3ccc(F)cc3)C1C2 (configuration not stated)                  =             179
 7  COc1ccc(C2C3Cc4cc(OC)c(OC)cc4C3=NN2C(=O)Nc2ccc(Br)cc2)cc1 (configuration not stated)                  =             136
 8  COc1cc2c(cc1OC)C1=NN(C(N)=O)C(c3ccncc3)C1C2 (configuration not stated)                  =            40.4
 9  Cc1cn([C@H]2C[C@H](N=[N+]=[N-])[C@@H](CO)O2)c(=O)[nH]c1=O                  >            93.5
10  COc1cc2c(cc1OC)C1=NN(C(=O)Nc3ccc(F)cc3)C(c3ccccc3Cl)C1C2 (configuration not stated)                  =            9.09
11  COc1ccc(C2C3Cc4cc(OC)c(OC)cc4C3=NN2C(=O)Nc2c(C)cccc2C)cc1OC (configuration not stated)                  =             182
12  COc1cc2c(cc1OC)C1=NN(C(=O)Nc3ccc(Cl)cc3)C(c3ccccc3)C1C2 (configuration not stated)                  =            28.4
13  COc1ccc(C2C3Cc4cc(OC)c(OC)cc4C3=NN2C(N)=S)cc1OC (configuration not stated)                  =             158
14  COc1cc2c(cc1OC)C1=NN(C(=O)Nc3ccc(Br)cc3)C(c3ccncc3)C1C2 (configuration not stated)                  =            26.5
15  COc1ccc(C2C3Cc4cc(OC)c(OC)cc4C3=NN2C(=O)Nc2ccc(Cl)cc2)cc1OC (configuration not stated)                  =             106
16  COc1cc2c(cc1OC)C1=NN(C(N)=S)C(c3ccc(F)cc3)C1C2 (configuration not stated)                  =            39.9
17  COc1ccc(C2C3Cc4cc(OC)c(OC)cc4C3=NN2C(=O)Nc2ccc(C)cc2C)cc1OC (configuration not stated)                  =             145
18  COc1cc2c(cc1OC)C1=NN(C(=O)Nc3ccc(C)cc3C)C(c3ccccc3Cl)C1C2 (configuration not stated)                  =              11
19  COc1cc2c(cc1OC)C1=NN(C(=O)Nc3ccc(Cl)cc3)C(c3ccccc3Cl)C1C2 (configuration not stated)                  =            22.9
20  COc1cc2c(cc1OC)C1=NN(C(N)=S)C(c3ccncc3)C1C2 (configuration not stated)                  =            36.9
21  COc1ccc(C2C3Cc4cc(OC)c(OC)cc4C3=NN2C(=O)Nc2ccc(F)c(Cl)c2)cc1OC (configuration not stated)                  =             223
22  COc1cc2c(cc1OC)C1=NN(C(=O)Nc3ccc(F)c(Cl)c3)C(c3ccncc3)C1C2 (configuration not stated)                  =            29.5
23  COc1ccc(C2C3Cc4cc(OC)c(OC)cc4C3=NN2C(=O)Nc2ccc(Br)cc2)cc1OC (configuration not stated)                  =             150
24  COc1cc2c(cc1OC)C1=NN(C(=O)Nc3ccc(Cl)cc3)C(c3ccncc3)C1C2 (configuration not stated)                  =            4.83
25  COc1cc2c(cc1OC)C1=NN(C(=O)Nc3ccc(F)cc3)C(c3ccccc3)C1C2 (configuration not stated)                  =            68.6
26  COc1cc2c(cc1OC)C1=NN(C(=O)Nc3ccc(F)cc3)C(c3ccncc3)C1C2 (configuration not stated)                  =            31.9

Recorded values, source ChEMBL document CHEMBL2203270.
